system: MS2 coat protein; assay: apparent KD of MS2 coat protein; designed switch direction (-1 OFF switch, 1 ON switch): -1; higher = weaker reporter binding; settings: input ligand: FMN 200 uM
ASSAY METRIC: apparent KD of MS2 coat protein (nM)
Form entry: value (nM) — number only.

Some sequences with known apparent KD of MS2 coat protein results, for comparison:
{"columns": ["MONOMER SEQUENCE", "EXPERIMENTAL RESULT"],
 "data": [
  ["ACAUGAGGCGAAGGAUAUCUUUAGAGGAUUACCAGAGAAGGUCGACAUGAGGAUCACCCAUGUACAUGAGGGUCUUGAAUGUUA [9th something] (Eterna round: R96, puzzle: Exclusion NG 1)", 245],
  ["AAAUUAGCAAGUAGGUCCGACAUGAGGAUCACCCAUGUUAUCUGAAAUAACGCUGCAUGAAAGUGCGCUCGUCUUAG [Sensor-V1 #9] (Eterna round: R97, puzzle: Sensor, turn-off variant 1)", 65.3],
  ["CCCGGGUCAGGAUAUCACUUAAGCGCAGUGAGCGUCUGAGAUGAGAAGGGACAUGAGGAUCACCCAUGUGUGGC [Eternabot (L2) Solution 66] (Eterna round: R97, puzzle: Exclusion 4)", 456],
  ["GAAAAACAUGAGGAUCACCCAUGUAAGGAUAUGCUGAAAAACACGGAAAAAACGUGCAGCAGAAGGUACAAAAG [Mat - Exclusion 1 - Eli mod - D91] (Eterna round: R96, puzzle: Exclusion 1)", 107],
  ["AGGUCCUUCUGGAGACAUGAGGAUCACCCAUGUCGGGUCAGCGAGGAUAUCGGUUAAUAAUGUGACGAGAAGGCGCGGACCGAU [Ex NG3 #56] (Eterna round: R96, puzzle: Exclusion NG 3)", 104],
  ["UAUUCACAUGAGGAUCACCCAUGUCAGGAUAUGCUCGAUAUAUGGAAACAUAUAUCGAGCAGAAGGGACUAGCG [Jieuxxlusion 8 - Jieux - Exclusion 1] (Eterna round: R97, puzzle: Exclusion 1)", 98.7],
  ["UAUAUGUCAGGAUAUUAGUUGUGUUCGAAUUUCACUUCUGCUGAGAAGGGACAUGAGGAUCACCCAUGUUCCUC [JR_Ex4_Sub006] (Eterna round: R97, puzzle: Exclusion 4)", 17.1],
  ["CUUUAGCAGGUAGGAUAUACGAAGUGUCGGCGAGUAGAAGGACCUGCGAUCCACUUGAGGAUCACCCAAGUUCGCAGGAGAACA [Mutated MS2 EX1.10] (Eterna round: R96, puzzle: Exclusion NG 1)", 103]
]}

Notebook: pull reported apparent KD of MS2 coat protein for MS2 coat protein, entry UGUCAGAUGGUAGGAUAUCCAUAUCGAGUGUCCCUUUCCUAACAUGAGGAUCACCCAUGUCGGUGGGAGAAGGGCCGUAUGGUG [salish99_ExNG02_R04_034] (Eterna round: R96, puzzle: Exclusion NG 2) 12.5
